# assay_overview: T. gondii growth inhibition with IFN-gamma, primary screen, cell-based (AID 1259416);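 further: host cells are HeLa cells infected with Toxoplasma gondii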
# condition: Toxoplasma gondii growth in IFN-gamma-treated host cells; stronger effect = lower value; concentration not given here
Among all 69,000 compounds or so, about 2,600 (3.8%) were called active. The sample as a whole holds a higher share of actives than the screen did.
outcome_measure: activity change, negative = inhibition (%)
Your answer is read as %, so omit the unit and give the number.

molecule="COc1ccc(CN2CCCC23CCCN(C(=O)Cc2ccc(Cl)cc2)C3)cc1F (stereo not given)" unit_info=% result=84.8
molecule=c1cc(-c2cccc3c2CCNC3)cc(-n2cnnc2)c1 unit_info=% result=-1.55
molecule="CN1CCC2(COCc3cnc(NCc4ccco4)nc32)C1 (stereo not given)" unit_info=% result=-59.4
molecule="C/C=C/c1ccc(C2[C@@H]3CN(S(C)(=O)=O)C[C@H]2N3)cc1 (stereo not given in full)" unit_info=% result=4.19
molecule="O=C(Nc1cccc(F)c1)N1CC2CNC(C2)C1 (stereo not given)" unit_info=% result=-49

QUERY: For CC(Cc1ccccn1)N(C)Cc1ncc[nH]1 (stereo not given) , what is its reported activity change, negative = inhibition?
RESULT: 15.6

QUERY: Please give the result for COc1cc([C@@H]2c3cc4c(cc3[C@H](OC(C)=O)[C@H]3COC(=O)[C@H]23)OCO4)cc(OC)c1OC too.
RESULT: -81.8

QUERY: Also, Cc1nc(N2CCCN3CCC[C@H]3C2)c2cnn(C)c2n1 please.
RESULT: 2.34

QUERY: Request: COc1ccc(NC(=O)c2cc3cccnc3n(Cc3ccc(Cl)cc3)c2=O)c(OC)c1
RESULT: 113

QUERY: Another: CNC(=O)[C@H]1CC2CN(C(=O)Cc3cccs3)CC2N1C (stereo not given in full)
RESULT: -9.27

QUERY: Moving on to the next molecule: CO[C@@H]1CCN(C(=O)c2ccc(C)cn2)[C@H]2CN(CC3CC3)C[C@@H]12
RESULT: 294

QUERY: Proceed to C=CCNC(=O)c1cn(Cc2ccc(C)o2)cc(C(=O)N2CCCCCCC2)c1=O
RESULT: -1.9

QUERY: Consider next the molecule CC(NC(=O)c1c(O)c2cccnc2n(Cc2ccccc2)c1=O)c1ccccc1 (stereo not given) in the same way.
RESULT: -120

QUERY: Next record, please: CCc1ccc(NC(=O)c2cc3cccnc3n(Cc3ccccc3F)c2=O)cc1
RESULT: 49.4

QUERY: Field entry: CC(C)c1ccc(NC(=O)c2cc3cccnc3n(Cc3ccc(Cl)cc3)c2=O)cc1
RESULT: 70.6
